- assay-target: NDM-1 (Klebsiella pneumoniae, UniProt C7C422)
- Sequence (C7C422 whole entry, looked up, species assumed): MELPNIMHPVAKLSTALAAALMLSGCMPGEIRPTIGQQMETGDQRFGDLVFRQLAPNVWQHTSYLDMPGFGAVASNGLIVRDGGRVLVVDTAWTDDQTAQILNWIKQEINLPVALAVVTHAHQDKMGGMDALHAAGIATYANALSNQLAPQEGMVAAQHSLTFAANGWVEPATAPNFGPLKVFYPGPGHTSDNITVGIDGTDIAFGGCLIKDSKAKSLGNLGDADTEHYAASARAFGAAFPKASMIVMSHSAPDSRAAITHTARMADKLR
- protocol-text: biochemical
- Assay type: biochemical
- setup-conditions: CCF2-FA substrate, 2 hours at 25° C; read-out: NDM-1 IC50
pIC50: −log10 of the molar value.
This section presents molecules with their documented pIC50 values.
readout-kind: pIC50

>>> endpoint_value("Nc1nc2ccc(-c3ccc(S(=O)(=O)C4CNC4)c(S(N)(=O)=O)c3-c3nn[nH]n3)cn2n1 [Example 215]")
9.62
>>> endpoint_value("NS(=O)(=O)c1c(S(=O)(=O)CCO)ccc(-c2cccc3c2ccc[n+]3[O-])c1-c1nn[nH]n1 [Example 320]")
9.03
>>> endpoint_value("Nc1nc2c(-c3ccc(S(=O)(=O)c4cccc(C(F)(F)F)c4)c(S(N)(=O)=O)c3-c3nn[nH]n3)cccc2s1 [Example 250]")
9.61
>>> endpoint_value("NS(=O)(=O)c1c(S(=O)(=O)C2CNC2)ccc(-c2cnc3ccoc3c2)c1-c1nnn[nH]1.O=C(O)C(F)(F)F [Example 101, 2,2,2-trifluoroacetate]")
9.04
>>> endpoint_value("Cc1ccc(-c2ccc(S(C)(=O)=O)c(S(N)(=O)=O)c2-c2nn[nH]n2)c2nc(N)sc12 [Example 193]")
9.86
>>> endpoint_value("Nc1nc2c(-c3ccc(S(=O)(=O)C4CCNCC4)c(S(N)(=O)=O)c3-c3nn[nH]n3)cccc2[s+]1[O-] (stereo not shown) [Example 316]")
9.55
>>> endpoint_value("Cc1nc2c(-c3ccc(S(=O)(=O)CCN)c(S(N)(=O)=O)c3-c3nn[nH]n3)cccc2[nH]1 [Example 331]")
9.78

* * *

- assay-target: VIM-1 (Pseudomonas aeruginosa (strain ATCC 15692 / DSM 22644 / CIP 104116 / JCM 14847 / LMG 12228 / 1C / PRS 101 / PAO1), UniProt A0A0F7KYQ8)
- protocol-text: biochemical
- setup-conditions: CCF2-FA substrate, 2 hours at 25° C
pIC50: −log10 of the molar value.
readout-kind: pIC50

>>> endpoint_value("NCCS(=O)(=O)c1ccc(-c2cccc3[nH]c([C@H](N)CO)nc23)c(-c2nn[nH]n2)c1S(N)(=O)=O [Example 329]")
9.55
>>> endpoint_value("C[C@H](CN)S(=O)(=O)c1ccc(-c2cccc3sc(N)nc23)c(-c2nn[nH]n2)c1S(N)(=O)=O [Example 285]")
9.44
>>> endpoint_value("NS(=O)(=O)c1c(S(=O)(=O)C2CNC2)ccc(-c2ccc(CO)nc2)c1-c1nnn[nH]1.O=C(O)C(F)(F)F [Example 111, 2,2,2-trifluoroacetate]")
9.02

* * *

- assay-target: VIM-1 (Pseudomonas aeruginosa (strain ATCC 15692 / DSM 22644 / CIP 104116 / JCM 14847 / LMG 12228 / 1C / PRS 101 / PAO1), UniProt A0A0F7KYQ8)
- protocol-text: biochemical
- setup-conditions: CCF2-FA substrate, 2 hours at 25° C
pIC50: −log10 of the molar value.
This section presents compounds with their documented pIC50 values.
readout-kind: pIC50

>>> endpoint_value("NS(=O)(=O)c1c([S+]([O-])C2CCNCC2)ccc(-c2ccc(C3CCNCC3)cc2)c1-c1nnn[nH]1 (stereo not drawn)")
8.93
>>> endpoint_value("NS(=O)(=O)c1c(S(=O)(=O)C2CNC2)ccc(-c2cnc3ccoc3c2)c1-c1nnn[nH]1.O=C(O)C(F)(F)F [Example 101, 2,2,2-trifluoroacetate]")
9.40
>>> endpoint_value("NS(=O)(=O)c1c(S(=O)(=O)C2CNC2)ccc([C@H]2CC[C@@H](N)CC2)c1-c1nnn[nH]1")
8.15
